# EXPERIMENTAL SYSTEM: AKT (Homo sapiens)
# Construct: Kinases are expressed as either kinase domains or full length constructs; made in house
# Sequence (Q9Y243 whole entry, the tested form may be a part): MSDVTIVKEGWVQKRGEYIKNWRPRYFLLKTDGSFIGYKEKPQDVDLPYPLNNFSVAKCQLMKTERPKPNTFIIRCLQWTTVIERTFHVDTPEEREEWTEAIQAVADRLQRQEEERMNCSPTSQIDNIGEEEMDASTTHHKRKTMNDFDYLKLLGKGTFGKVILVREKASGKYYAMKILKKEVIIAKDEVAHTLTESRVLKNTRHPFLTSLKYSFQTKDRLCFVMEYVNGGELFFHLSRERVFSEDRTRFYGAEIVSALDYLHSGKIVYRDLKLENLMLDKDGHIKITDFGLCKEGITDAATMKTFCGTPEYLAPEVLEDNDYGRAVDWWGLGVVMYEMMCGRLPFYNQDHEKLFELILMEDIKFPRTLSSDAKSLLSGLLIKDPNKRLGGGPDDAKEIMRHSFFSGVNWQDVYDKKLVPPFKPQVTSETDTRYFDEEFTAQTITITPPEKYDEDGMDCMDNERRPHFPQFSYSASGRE
# TEST PROTOCOL: Kinase inhibition assay (33P transfer), AKT
# Format: biochemical
# COND: Table 2, kinase inhibition class; read-out: AKT3-1
pIC50: −log10 of the molar value.
REPORTED METRIC: pIC50

molecule=Clc1cccc(Nc2ncnc(Nc3cc(-c4ccccc4)n[nH]3)n2)c1 experimental_system="AKT (Homo sapiens)" reported_metric=pIC50 result="< 4.91"
molecule=COc1cc(Nc2ncnc(Nc3cc(-c4ccc(C)cc4)n[nH]3)n2)cc(OC)c1OC experimental_system="AKT (Homo sapiens)" reported_metric=pIC50 result="< 4.98"
molecule=COC(=O)c1sccc1Nc1ncnc(Nc2cc(OC)c(OC)c(OC)c2)n1 experimental_system="AKT (Homo sapiens)" reported_metric=pIC50 result="< 4.97"
molecule=N#Cc1cccc(Nc2ncnc(-n3c(=O)[nH]c4ccccc43)n2)c1 experimental_system="AKT (Homo sapiens)" reported_metric=pIC50 result="< 4.86"
molecule="CCN(CC)C(=O)C1CCCN(c2ncnc(Nc3cc(OC)c(OC)c(OC)c3)n2)C1 (stereo not shown)" experimental_system="AKT (Homo sapiens)" reported_metric=pIC50 result="< 4.99"
molecule=COc1ccc(Nc2ncnc(N(C)c3ccc(Cl)c(Cl)c3)n2)cc1OC experimental_system="AKT (Homo sapiens)" reported_metric=pIC50 result="< 4.96"
molecule=COc1cc(Nc2ncnc(Nc3cc(-c4ccc(C(=O)O)cc4)n[nH]3)n2)cc(OC)c1OC experimental_system="AKT (Homo sapiens)" reported_metric=pIC50 result="< 5.01"
molecule=COc1cc(Nc2ncnc(-n3c(NCCc4ccccn4)nc4ccccc43)n2)cc(OC)c1OC experimental_system="AKT (Homo sapiens)" reported_metric=pIC50 result="< 5.04"
molecule=CC(=O)Nc1ccc(Nc2ncnc(-c3cccs3)n2)cc1 experimental_system="AKT (Homo sapiens)" reported_metric=pIC50 result="< 4.84"
molecule=NS(=O)(=O)c1ccc(Nc2ncnc(-n3c(=O)[nH]c4ccccc43)n2)cc1 experimental_system="AKT (Homo sapiens)" reported_metric=pIC50 result="4.93 to 5.04"

====

# EXPERIMENTAL SYSTEM: Zap-70 (Homo sapiens, UniProt P43403)
# Construct: Kinases are expressed as either kinase domains or full length constructs; made in house
# Sequence (P43403 whole entry, species assumed, the tested form may be a part): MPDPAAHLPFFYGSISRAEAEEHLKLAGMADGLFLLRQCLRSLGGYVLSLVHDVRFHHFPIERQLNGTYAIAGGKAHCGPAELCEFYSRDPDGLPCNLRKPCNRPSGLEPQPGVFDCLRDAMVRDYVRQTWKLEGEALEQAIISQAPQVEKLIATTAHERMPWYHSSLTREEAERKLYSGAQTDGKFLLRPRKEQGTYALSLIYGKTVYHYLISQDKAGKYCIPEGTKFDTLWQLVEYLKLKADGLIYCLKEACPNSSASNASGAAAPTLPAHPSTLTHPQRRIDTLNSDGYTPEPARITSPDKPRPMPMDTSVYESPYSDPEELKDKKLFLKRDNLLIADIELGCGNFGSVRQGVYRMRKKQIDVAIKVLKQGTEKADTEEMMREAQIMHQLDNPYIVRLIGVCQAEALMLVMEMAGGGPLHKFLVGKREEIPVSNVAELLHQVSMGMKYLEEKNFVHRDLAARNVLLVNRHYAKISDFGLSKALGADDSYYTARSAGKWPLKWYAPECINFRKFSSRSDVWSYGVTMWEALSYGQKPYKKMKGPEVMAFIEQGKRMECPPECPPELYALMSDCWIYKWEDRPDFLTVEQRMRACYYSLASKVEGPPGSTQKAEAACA
# TEST PROTOCOL: Kinase inhibition assay (33P transfer), Zap-70
# Assay type: biochemical
# COND: Table 3; read-out: Zap-1
Reported IC50 values are given for each entry in this list.
REPORTED METRIC: IC50

compound="COc1cc(Nc2ncnc(Nc3ccc4c(ccn4Cc4ccccc4)c3)n2)cc(OC)c1OC [Compound 178]" reported_metric=IC50 result="0.829 to 4.97 µM"
compound="COc1cc(Nc2ncnc(Nc3cc(-c4ccccc4)nn3C)n2)cc(OC)c1OC [Compound 394]" reported_metric=IC50 result="> 10.4 µM"
compound="CCOC(=O)Cc1cn(-c2ncnc(Nc3cc(OC)c(OC)c(OC)c3)n2)c2ccccc12 [Compound 411]" reported_metric=IC50 result="> 9.71 µM"
compound="COc1cc(Nc2ncnc(Nc3ccc4ccccc4c3)n2)cc(OC)c1OC [Compound 96]" reported_metric=IC50 result="8.68 to 11.2 µM"
compound="COc1cc(Nc2ncnc(Nc3cccc4cccnc34)n2)cc(OC)c1OC [Compound 97]" reported_metric=IC50 result="> 11.1 µM"
compound="COc1ccc(Nc2ncnc(Nc3cccc(Br)c3)n2)cc1OC [Compound 118]" reported_metric=IC50 result="> 11.2 µM"
compound="COc1ccc(Nc2ncnc(Nc3cc(OC)c(OC)c(OC)c3)n2)cc1 [Compound 89]" reported_metric=IC50 result="> 11.7 µM"
compound="COc1cc(Nc2ncnc(-n3ccnc3)n2)cc(OC)c1OC [Compound 183]" reported_metric=IC50 result="> 13.7 µM"
compound="COc1cc(Nc2ncnc(Nc3cc(C(C)(C)C)[nH]n3)n2)cc(OC)c1OC [Compound 313]" reported_metric=IC50 result="> 11.3 µM"
compound="COc1cc(Nc2ncnc(-n3c(NCC(C)C)nc4ccccc43)n2)cc(OC)c1OC [Compound 407]" reported_metric=IC50 result="> 10 µM"
compound="COc1cc(Nc2ncnc(-n3c(=O)sc4cc(Br)ccc43)n2)cc(OC)c1OC [Compound 426]" reported_metric=IC50 result="> 9.18 µM"
compound="COc1cc(Nc2ncnc(-n3ccc4cc(OCc5ccccc5)ccc43)n2)cc(OC)c1OC [Compound 200]" reported_metric=IC50 result="> 9.31 µM"
compound="COc1ccc(Nc2ncnc(Nc3cc(OC)c(OC)c(OC)c3)n2)cc1O [Compound 931]" reported_metric=IC50 result="> 11.3 µM"
compound="COc1ccccc1Nc1ncnc(-c2ccccc2)n1 [Compound 12]" reported_metric=IC50 result="> 16.2 µM"
compound="COc1cc(Nc2ncnc(Nc3ccc(O)cc3C)n2)cc(OC)c1OC [Compound 927]" reported_metric=IC50 result="> 11.7 µM"
compound="COc1cc(NC(=O)Nc2ncnc(Nc3cc(OC)c(OC)c(OC)c3)n2)cc(OC)c1 [Compound 22]" reported_metric=IC50 result="> 9.86 µM"
compound="COc1cc(Nc2ncnc(N)n2)cc(OC)c1OC [Compound 925]" reported_metric=IC50 result="> 16.2 µM"
compound="COc1cc(Nc2ncnc(N3CCOCC3)n2)cc(OC)c1OC [Compound 209]" reported_metric=IC50 result="> 13 µM"
compound="COc1cc(Nc2ncnc(Nc3ccc(Cl)cc3)n2)cc(OC)c1OC [Compound 72]" reported_metric=IC50 result="> 11.6 µM"

====

Each entry below lists one item and its recorded IC50 value.
# EXPERIMENTAL SYSTEM: ErbB4 (Homo sapiens, UniProt Q15303)
# Sequence (Q15303 26-1308, species assumed): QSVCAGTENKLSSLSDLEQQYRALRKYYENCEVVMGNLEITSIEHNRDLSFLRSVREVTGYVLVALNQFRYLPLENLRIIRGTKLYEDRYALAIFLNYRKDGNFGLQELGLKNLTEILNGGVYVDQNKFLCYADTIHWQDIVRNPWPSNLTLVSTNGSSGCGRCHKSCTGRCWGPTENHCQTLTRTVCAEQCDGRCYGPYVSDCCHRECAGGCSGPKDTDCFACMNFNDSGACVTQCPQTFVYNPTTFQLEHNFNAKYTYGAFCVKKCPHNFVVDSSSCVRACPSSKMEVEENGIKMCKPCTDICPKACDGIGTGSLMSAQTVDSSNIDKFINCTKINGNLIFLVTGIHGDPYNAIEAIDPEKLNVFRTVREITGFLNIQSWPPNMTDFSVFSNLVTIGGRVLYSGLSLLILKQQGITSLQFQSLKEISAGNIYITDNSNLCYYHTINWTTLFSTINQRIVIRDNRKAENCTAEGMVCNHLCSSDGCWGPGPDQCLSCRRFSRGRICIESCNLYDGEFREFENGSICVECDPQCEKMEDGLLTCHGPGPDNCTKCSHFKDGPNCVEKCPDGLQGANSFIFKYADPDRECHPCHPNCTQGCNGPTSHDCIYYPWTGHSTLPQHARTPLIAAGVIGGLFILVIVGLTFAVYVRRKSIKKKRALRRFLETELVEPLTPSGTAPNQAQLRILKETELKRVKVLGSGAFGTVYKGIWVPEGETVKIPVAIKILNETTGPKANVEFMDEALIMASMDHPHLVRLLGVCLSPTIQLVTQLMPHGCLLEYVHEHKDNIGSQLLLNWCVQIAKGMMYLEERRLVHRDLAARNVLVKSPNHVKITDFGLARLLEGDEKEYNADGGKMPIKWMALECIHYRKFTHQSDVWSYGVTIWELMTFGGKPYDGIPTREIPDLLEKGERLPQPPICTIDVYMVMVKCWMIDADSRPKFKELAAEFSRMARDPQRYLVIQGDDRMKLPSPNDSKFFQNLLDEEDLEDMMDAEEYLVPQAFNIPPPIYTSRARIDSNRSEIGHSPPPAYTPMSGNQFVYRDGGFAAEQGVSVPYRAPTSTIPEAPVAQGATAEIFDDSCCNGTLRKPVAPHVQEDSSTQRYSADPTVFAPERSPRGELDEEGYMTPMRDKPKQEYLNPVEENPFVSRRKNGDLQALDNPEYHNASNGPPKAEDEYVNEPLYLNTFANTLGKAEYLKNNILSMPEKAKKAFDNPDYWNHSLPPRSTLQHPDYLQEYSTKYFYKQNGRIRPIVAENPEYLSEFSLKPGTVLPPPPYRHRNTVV
REPORTED METRIC: IC50

molecule=COc1cc(Nc2ncnc(Nc3ccc(Oc4ccccc4)cc3)n2)cc(OC)c1OC result="0.898 to 5.39 µM"
molecule=COc1cc(Nc2ncnc(-n3c(N)nc4ccccc43)n2)cc(OC)c1OC result="> 11.4 µM"
molecule=COCCOc1ccc(Nc2ncnc(-n3c(N)nc4ccccc43)n2)cc1OC result="> 11 µM"
molecule=COc1cc(Nc2ncnc(Nc3ccc(C)c(O)c3)n2)cc(OC)c1OC result="1.04 to 6.26 µM"
molecule=COc1cc(Nc2ncnc(Nc3ccc(C)cc3F)n2)cc(OC)c1OC result="6.23 to 9.08 µM"
molecule=COCCOc1ccc(Nc2ncnc(Nc3ccc(C)c(O)c3)n2)cc1OCCOC result="7.93 to 10.2 µM"
molecule=COCCOc1ccc(Nc2ncnc(-n3c(N)nc4ccccc43)n2)cc1OCCOC result="> 9.97 µM"
molecule=COc1cc(Nc2ncnc(-n3ccc4cc(F)ccc43)n2)cc(OC)c1OC result="> 11.4 µM"
molecule=OCc1cccc(Nc2ncnc(Nc3cc(-c4ccco4)n[nH]3)n2)c1 result="1.14 to 6.87 µM"
molecule=COc1cc(Nc2ncnc(Nc3ccc(F)c(Cl)c3)n2)cc(OC)c1OC result="> 11.1 µM"
molecule=COc1ccc(Nc2nc3ccccc3n2-c2ncnc(Nc3cc(OC)c(OC)c(OC)c3)n2)cc1 result="> 9.01 µM"
molecule=COc1cc(Nc2ncnc(Nc3cccc(Br)c3)n2)cc(OC)c1OC result="> 10.4 µM"
molecule=COc1cc(Nc2ncnc(-c3ccnc(NCCCO)c3)n2)cc(OC)c1OC result="> 10.9 µM"
molecule=NC(=O)c1ccc(Nc2ncnc(-n3c(N)nc4ccccc43)n2)cc1 result="1.15 to 6.93 µM"
molecule=COc1cc(Nc2ncnc(-n3c(Nc4ccccc4)nc4ccccc43)n2)cc(OC)c1OC result="> 9.58 µM"
molecule=COc1cc(Nc2ncnc(-n3c(NCc4ccncc4)nc4ccccc43)n2)cc(OC)c1OC result="> 9.29 µM"
molecule=COc1cc(Nc2ncnc(Nc3ccc(Cl)cc3)n2)cc(OC)c1OC result="1.03 to 6.19 µM"
molecule=COc1ccc(Nc2ncccc2-c2ncnc(Nc3cc(OC)c(OC)c(OC)c3)n2)c(C)c1 result="> 9.48 µM"
molecule=Cc1cccc(Nc2ncnc(Nc3cccc(Br)c3)n2)c1 result="> 12.6 µM"
molecule=CC(C)Nc1ncccc1-c1ncnc(Nc2ccc(C(N)=O)cc2)n1 result="> 12.9 µM"
molecule=COc1cc(Nc2ncnc(-n3c(Nc4ccc(C(C)C)cc4)nc4ccccc43)n2)cc(OC)c1OC result="> 8.8 µM"
molecule=COc1cccc(Nc2nc3ccccc3n2-c2ncnc(Nc3cc(OC)c(OC)c(OC)c3)n2)c1 result="> 9.01 µM"
molecule=COc1cc(Nc2ncnc(Nc3ccc(Br)c(Cl)c3)n2)cc(OC)c1OC result="0.857 to 5.14 µM"
molecule=COc1cc(Nc2ncnc(-n3c(NCc4cccc(Cl)c4)nc4ccccc43)n2)cc(OC)c1OC result="0.772 to 4.63 µM"
molecule=COc1cc(Nc2ncnc(-n3c(NCC(C)C)nc4ccccc43)n2)cc(OC)c1OC result="> 10 µM"
molecule=COc1cc(Nc2ncnc(-n3c(NCc4ccc(F)cc4)nc4ccccc43)n2)cc(OC)c1OC result="> 8.97 µM"
molecule=COc1cc(Nc2ncnc(Nc3ccc(Br)cc3F)n2)cc(OC)c1OC result="> 9.99 µM"
molecule=C=CCNc1ncccc1-c1ncnc(Nc2cc(OC)c(OC)c(OC)c2)n1 result="> 11.4 µM"
molecule=COc1cc(Nc2ncnc(Nc3ccc(Cl)cc3F)n2)cc(OC)c1OC result="> 11.1 µM"
molecule="CCC(Nc1nc2ccccc2n1-c1ncnc(Nc2cc(OC)c(OC)c(OC)c2)n1)c1ccccc1 (centres unmarked)" result="4.69 to 6.84 µM"
molecule=COc1ccc(Nc2ncnc(Nc3ccc(C)c(O)c3)n2)cc1OC result="1.13 to 6.79 µM"
molecule=COc1cc(Nc2ncnc(N(c3ccccc3)c3nc4ccccc4[nH]3)n2)cc(OC)c1OC result="> 9.58 µM"
